Test system: OVCAR-5 ovarian
Test: NCI tumour cell line growth inhibition, 48 h; in the data active = GI50 below about 0.43 µM; inactive = the rest
Entry note: the call must match one of yes = active, no = inactive

Inquiry: Kindly provide the recorded test outcome for the following compound: O=C(O)Cn1c2c(c3c(O)cccc31)C(=O)c1ccccc1-2
Reply text: no

Inquiry: Also need Cc1ccc(C2CC(c3cccc(Nc4ccncc4)c3)=NN2c2ccccc2)cc1 (stereo not given) , thanks.
Reply text: no

Inquiry: Also need COC(=O)C1=C(O)[C@H](C(=O)OC)[C@]2(O)[C@@H](C(=O)OC)[C@H]1C[C@@H](c1ccc(OC(=O)/C=C/c3ccco3)cc1)[C@@H]2C(=O)OC , thanks.
Reply text: no

Inquiry: Also need O=C(NNC(=S)Nc1ccccc1)c1ccccn1 , thanks.
Reply text: no

Inquiry: Also need O=c1c(-c2ccc(O)cc2)coc2cc(OC3OC(CO)C(O)C(O)C3O)cc(O)c12 (stereo not given) , thanks.
Reply text: no

Inquiry: Also need NC(=Nc1nc(-c2ccccn2)cc2ccccc12)c1ccccn1 , thanks.
Reply text: yes

Inquiry: Also need CSc1ccc(C2=NN(C(C)=O)C(c3ccc(F)cc3)C2)cc1 (stereo not given) , thanks.
Reply text: no

Inquiry: Also need CCOc1c(C#N)c2c(N)ncnc2n1C1OC(CO)C(O)C1O (stereo not given) , thanks.
Reply text: no

Inquiry: Also need CO[C@@H]1[C@H]2[C@@H](C)c3ccoc3C[C@@H]2[C@@]2(C)CC[C@H](OC(=O)c3ccccc3)[C@](C)(C(=O)O)[C@]2(O)[C@@H]1OC(=O)c1ccccc1 , thanks.
Reply text: no

Inquiry: Also need CC[C@@H](C)Nc1cc(C(=O)NC2CC3CCC(C2)N3c2ccc(C(=O)C3CC3)cn2)c(C)cc1C(N)=O (stereo not given in full) , thanks.
Reply text: yes

Inquiry: Also need COc1cc(-c2ccc(NC(=O)NC3CC3)c(OC)c2)ccc1NC(=O)NC1CC1 , thanks.
Reply text: no

Inquiry: Also need COc1cc(/C=C\c2cc(/C=C\c3ccc(O)c(OC)c3)n(C(=O)CNc3ccc(Cl)cc3)n2)ccc1O , thanks.
Reply text: no

Inquiry: Also need N#Cc1c(N)nc(N2CCSCC2)c(C#N)c1-c1ccc(O)cc1 , thanks.
Reply text: no

Inquiry: Also need COc1cc2ncn(-c3cc(OCc4ccccc4C(F)(F)F)c(C(C)=O)s3)c2cc1OC , thanks.
Reply text: no

Inquiry: Also need C=C1CCC2C3(C)COC(c4ccc(Cl)cc4)OC3CCC2(C)C1/C=C/C1=CCOC1=O (stereo not given) , thanks.
Reply text: no
